system-tested: mGlu8 (Homo sapiens)
Sequence (O00222 34-908): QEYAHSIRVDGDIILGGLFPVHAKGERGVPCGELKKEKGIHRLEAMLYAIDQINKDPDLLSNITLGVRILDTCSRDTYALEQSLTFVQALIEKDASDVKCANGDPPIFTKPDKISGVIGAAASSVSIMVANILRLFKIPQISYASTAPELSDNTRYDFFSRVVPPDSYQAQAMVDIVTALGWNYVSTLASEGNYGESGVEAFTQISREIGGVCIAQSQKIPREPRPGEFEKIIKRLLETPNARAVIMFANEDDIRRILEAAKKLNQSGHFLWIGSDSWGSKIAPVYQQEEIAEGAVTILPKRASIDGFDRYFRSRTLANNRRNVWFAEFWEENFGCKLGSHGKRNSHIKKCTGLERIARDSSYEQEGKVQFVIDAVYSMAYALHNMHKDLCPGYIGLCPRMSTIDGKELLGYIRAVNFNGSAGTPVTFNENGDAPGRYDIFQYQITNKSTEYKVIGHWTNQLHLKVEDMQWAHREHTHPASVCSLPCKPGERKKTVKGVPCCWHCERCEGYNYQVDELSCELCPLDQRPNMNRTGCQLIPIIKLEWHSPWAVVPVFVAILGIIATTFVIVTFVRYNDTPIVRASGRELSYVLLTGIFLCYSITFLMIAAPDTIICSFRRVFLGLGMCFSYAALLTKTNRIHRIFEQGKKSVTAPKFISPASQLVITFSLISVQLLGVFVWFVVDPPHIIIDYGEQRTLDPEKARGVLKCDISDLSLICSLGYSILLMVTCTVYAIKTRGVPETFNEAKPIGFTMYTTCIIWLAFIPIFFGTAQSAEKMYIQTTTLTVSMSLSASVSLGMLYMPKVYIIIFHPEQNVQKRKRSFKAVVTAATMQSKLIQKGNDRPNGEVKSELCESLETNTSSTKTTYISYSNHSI
method-notes: Agonist activity on group III receptor mGlu8
run-conditions: read-out: EC50 mGlu8; Table 1; mean ± spread (n)
pEC50: −log10 of the molar value.
assay-endpoint: pEC50

compound | endpoint-value
N[C@H](CCP(=O)(O)CCC(=O)O)C(=O)O [(3R)-PCEP, reference compound] | 4.24

* * *

system-tested: rat mGlu4 (Rattus norvegicus, UniProt P31423)
Construct: expressed in transfected cells; host or cells: HEK293
Sequence (P31423 33-912): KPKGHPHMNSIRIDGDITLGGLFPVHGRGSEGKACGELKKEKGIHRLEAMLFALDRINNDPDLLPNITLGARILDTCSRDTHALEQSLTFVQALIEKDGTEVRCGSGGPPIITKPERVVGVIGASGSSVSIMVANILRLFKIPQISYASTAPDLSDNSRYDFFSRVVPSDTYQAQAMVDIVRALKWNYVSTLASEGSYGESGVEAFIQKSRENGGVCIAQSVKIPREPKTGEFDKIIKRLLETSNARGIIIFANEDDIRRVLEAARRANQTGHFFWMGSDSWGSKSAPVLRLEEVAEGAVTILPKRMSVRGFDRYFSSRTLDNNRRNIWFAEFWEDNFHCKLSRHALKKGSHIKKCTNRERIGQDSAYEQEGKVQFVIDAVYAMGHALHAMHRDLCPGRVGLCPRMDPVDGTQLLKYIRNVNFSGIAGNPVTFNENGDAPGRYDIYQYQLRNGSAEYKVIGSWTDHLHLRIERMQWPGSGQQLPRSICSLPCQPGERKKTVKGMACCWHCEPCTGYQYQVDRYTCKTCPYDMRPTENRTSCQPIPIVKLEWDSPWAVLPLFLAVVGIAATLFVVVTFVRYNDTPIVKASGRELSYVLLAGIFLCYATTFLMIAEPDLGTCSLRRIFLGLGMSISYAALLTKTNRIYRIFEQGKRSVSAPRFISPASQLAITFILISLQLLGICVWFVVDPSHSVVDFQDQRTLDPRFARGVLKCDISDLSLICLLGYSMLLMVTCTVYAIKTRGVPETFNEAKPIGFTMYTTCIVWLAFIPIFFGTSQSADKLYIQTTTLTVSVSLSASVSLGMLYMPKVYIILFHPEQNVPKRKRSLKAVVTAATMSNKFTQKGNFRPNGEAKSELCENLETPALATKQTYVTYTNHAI
method-notes: Agonist activity, [3H]phosphatidylinositol accumulation in HEK293 cells transfected with rat mGlu4 and Gqi9
Type: cell-based
run-conditions: Table 2; n in brackets; read-out: mGlu4 EC50 μM (n)
Each record is given class 1 if its reported EC50 is strictly below 4 µM. Records at or above 4 µM are given class 0.

compound | answer-label
N[C@@H](CCP(=O)(O)C(O)c1ccc([N+](=O)[O-])c(C(F)(F)F)c1)C(=O)O (stereo partly drawn) | class 1
N[C@@H](CCP(=O)(O)C(O)c1ccc(C(F)(F)F)cc1)C(=O)O (stereo partly drawn) | class 0
N[C@@H](CCP(=O)(O)CC(=O)O)C(=O)O | class 1
COc1ccc(C(O)P(=O)(O)CC[C@H](N)C(=O)O)cc1[N+](=O)[O-] (stereo partly drawn) | class 1
NC(CCP(=O)(O)C(CC(=O)O)C(=O)O)C(=O)O (stereo not drawn) | class 0
N[C@@H](CCP(=O)(O)CC(CC(=O)O)C(=O)O)C(=O)O (stereo partly drawn) | class 0
N[C@@H](CCP(=O)(O)C(O)c1cccc([N+](=O)[O-])c1)C(=O)O (stereo partly drawn) | class 1
CS(=O)(=O)c1ccc(C(O)P(=O)(O)CC[C@H](N)C(=O)O)cc1 (stereo partly drawn) | class 0
N[C@@H](CCP(=O)(O)C(O)c1cc([N+](=O)[O-])cc([N+](=O)[O-])c1)C(=O)O (stereo partly drawn) | class 1
